The measurements presented in this section are drawn from patent US20260242478A1.

# Test Target: T1, PSMA Fab (006 PSMA Fab) (biotinylated (site not stated))
# T1 construct: That the same Fab was used in the panning ELISA is inferred; also called Anti-PSMA Fab; anti-PSMA Fab
# Assay Overview: clonal phage ELISA on captured anti-PSMA Fab pre-incubated with PSMA antigen (competitor: PSMA)
Where no end group is shown, it is not given here.
Kind request: treat 0.08 as inclusive, so phage binding ELISA signal in the presence of PSMA at 0.08 or higher is True, anything lower is False.

1) TDPLCIPEWMCQGM (Peptide-180 library clone, tested as clonal phage supernatant; not shown: fused to the pIII filament protein of the bacteriophage) [Phage-3421]; False
2) MTPRCIPSWMCFGM (Peptide-180 library clone, tested as clonal phage supernatant; not shown: fused to the pIII filament protein of the bacteriophage) [Phage-3426]; True
3) IDQICKPAWMCSGF (Peptide-180 library clone, tested as clonal phage supernatant; not shown: fused to the pIII filament protein of the bacteriophage) [Phage-3424]; False
4) YFQMCAPRWMCEGF (cysteine pairing not given here; also: fused to pIII of bacteriophage, Peptide-180 library clone, tested as clonal phage supernatant; not shown: fused to the pIII filament protein of the bacteriophage) [Phage-3423]; True
5) VEKMCKPVWMCNGF (Peptide-180 library clone, tested as clonal phage supernatant; not shown: fused to the pIII filament protein of the bacteriophage) [Phage-3430]; True
